biological target: Dickkopf-related protein 1 (Homo sapiens) (UniProt O94907); test: small molecules binding DKK1 protein – biochemical, small-molecule microarray, 635 nm fluorescence scan, primary screen (AID 1106); conditions: higher = more signal;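 note: score merges emission near 667 nm with signal to noise over three replicate slides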
Sequence (O94907 whole entry, looked up): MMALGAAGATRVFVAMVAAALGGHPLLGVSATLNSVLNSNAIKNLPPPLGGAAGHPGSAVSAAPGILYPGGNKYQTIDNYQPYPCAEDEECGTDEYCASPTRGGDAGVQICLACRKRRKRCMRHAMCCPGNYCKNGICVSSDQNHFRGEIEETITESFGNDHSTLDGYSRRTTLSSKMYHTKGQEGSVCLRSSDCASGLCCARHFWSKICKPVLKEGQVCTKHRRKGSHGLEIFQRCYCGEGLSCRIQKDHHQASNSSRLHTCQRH
measured_attribute: composite z-score
Write the value as a bare number.

compound | experimental_result
CCCC=C(CCC)[C@@H](NS(=O)(=O)CC12CCC(CC1=O)C2(C)C)c1ccc(C(=O)OC)cc1 (some centres undefined) | 0.336

Entry `COc1cccc(C)c1NC(=O)O[C@H]1[C@H](OC(=O)Nc2ccccc2-c2ccccc2)[C@H](OC(=O)Nc2ccccc2-c2ccccc2)[C@@H](OC)O[C@@H]1CO` , system Dickkopf-related protein 1 (Homo sapiens) (UniProt O94907): what composite z-score was measured? 0.717

Entry `CC[C@@H]1C=C(C(=O)O)[C@H](c2ccc(C#N)cc2)N1S(=O)(=O)c1ccc(C)cc1` , system Dickkopf-related protein 1 (Homo sapiens) (UniProt O94907): what composite z-score was measured? -1.22

Entry `CCCC[C@@H](O)C1=C(COc2ccccc2)C[C@H]2C(=O)N(Cc3ccccc3)C(=O)[C@H]2[C@H]1CO` , system Dickkopf-related protein 1 (Homo sapiens) (UniProt O94907): what composite z-score was measured? 0.638

----------
Entries and their composite z-score values follow.
experiment: probe aShh binding to arrayed compounds – biochemical, biotinylated probe, 635/667 nm fluorescence, primary screen (AID 1114); details: small-molecule microarray, higher = more signal;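 note: probe is biotin-labelled aShh protein from a stem cell growth factor screen; measures binding of labelled protein to compounds printed on the slide; score merges feature fluorescence at 667 nm with signal-to-noise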

compound | measured_attribute | experimental_result
CN(C)C(=O)[C@@]1(Cc2ccccc2)N=C(c2ccc(OCCCO)cc2)O[C@H]1c1ccccc1 | composite z-score | 0.0654
C=C(COC)/C(=C/C[C@H](OC(=O)c1ccncc1)c1ccccc1OCCO)c1cc(C(=O)OC)ccc1OC | composite z-score | -0.494
CC(=O)NCCCC[C@@H]1NC(=O)[C@@H]2C[C@H](C(=O)NCCCCCN)[C@H](c3cccc(OCCO)c3)N2C1=O | composite z-score | 0.663

Moving on to the next compound.
Value lookup for composite z-score; key = CCCCCCCCCCC(O)C1C=CC2C(=O)N(c3ccccc3)C(=O)C2N1Nc1ccc(C#N)cc1 (centres undefined) -0.164

----------
Entries and their composite z-score values follow.
assay: probe aShh binding to arrayed compounds – biochemical, biotinylated probe, 635/667 nm fluorescence, primary screen (AID 1114); conditions: small-molecule microarray, higher = more signal;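 note: probe is biotin-labelled aShh protein from a stem cell growth factor screen; measures binding of labelled protein to compounds printed on the slide; score merges feature fluorescence at 667 nm with signal-to-noise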
Write the value as a bare number.

compound | composite z-score
CC(CO)N1C(=O)[C@@H]2[C@H]3C(=O)OCC=C[C@H]3OC23C=CCN(Cn2nnc4ccccc42)C(=O)[C@@H]13 (stereo partly specified) | -0.117
CCCCC(CC)C(O)C1C=CC2C(=O)N(c3ccccc3)C(=O)C2N1Nc1ccc(C#N)cc1 (stereo unspecified) | 0.348
COC(=O)[C@@]1(Cc2ccc(OC)cc2)[C@H]2c3cc(C(=O)N4CCCC4)n(CCc4c[nH]c5ccc(O)cc45)c3C[C@H]2CN1C(=O)c1ccccc1 | 0.315
CCCC[C@@H](O)C1=C(COc2ccccc2)C[C@H]2C(=O)N(Cc3ccccc3)C(=O)[C@H]2[C@H]1CO | -0.214
[N-]=[N+]=Nc1ccccc1C[C@]1(C(=O)N2CCOCC2)COC(c2ccc(OCCCO)cc2)=N1 | 0.14

Value lookup for composite z-score; key = `Cc1ccc(S[C@]2(C(=O)NCc3ccccc3)CC(=O)N(C3CCCCC3)[C@@H]2c2ccc(CO)cc2I)cc1` -0.0324

Value lookup for composite z-score; key = `CC(C)NC(=O)[C@@]1(c2ccc([N+](=O)[O-])cc2)CC(=O)N(C2CCCCC2)[C@@H]1c1ccc(CO)cc1` -0.553

Value lookup for composite z-score; key = `O=C(NCCN1CCOCC1)[C@@H]1c2ccccc2C(=O)N(C2Cc3ccccc3C2)[C@H]1c1ccc(CO)cc1` -0.13

Value lookup for composite z-score; key = `CCCNC(=O)[C@@]1(Sc2ccc(C)cc2)CC(=O)N(C2Cc3ccccc3C2)[C@@H]1c1ccc(CO)cc1I` -0.221

Value lookup for composite z-score; key = Cc1ccccc1C(O)C1C=CC2C(=O)NC(=O)C2N1Nc1ccccn1 (stereo unspecified) -0.349

Value lookup for composite z-score; key = CCCCC(CC)C(O)C1C=CC2C(=O)N(c3ccccc3)C(=O)C2N1Nc1ccccc1F (stereo unspecified) 0.341

Value lookup for composite z-score; key = `C[N+](C)(C)CCCCCCNC(=O)[C@@H]1C[C@@H]2C(=O)N3CCC[C@H]3C(=O)N2[C@@H]1c1ccc(O)cc1` -0.138

Value lookup for composite z-score; key = `CCCC[C@@H]1C[C@H]1[C@@H](NC(=O)c1cccs1)c1ccccc1C(F)(F)F` 0.663

Value lookup for composite z-score; key = CC(C)C(CO)N1C(=O)[C@@H]2C3C(=O)OCCC/C=C\[C@H]3OC23C=CCN(Cn2nnc4ccccc42)C(=O)[C@@H]13 (stereo partly specified) -0.229

Value lookup for composite z-score; key = `CCOC(=O)C[C@H]1[C@H](OC(=O)c2ccc(C(=O)c3ccccc3)cc2)[C@@H](NC(=O)C2CCCCC2)c2cc(OCCCO)ccc2N1C(=O)c1ccc2ccccc2n1` -0.243

Value lookup for composite z-score; key = CC(C)(C)OC(=O)CC[C@@]1(C(=O)NCC(O)CO)N=C(c2ccc(OCCCO)cc2)O[C@@H]1c1ccccc1CN=[N+]=[N-] (stereo partly specified) 0.108

----------
assay: compound effects on hepatocellular carcinoma cell viability – HepG2, calcein-AM fluorescence, 48 h, basal, profiling panel (AID 1164); conditions: higher = more signal; note: test concentration not given here
Parameter threshold = 1. Response is 1.0 when z-score meets or exceeds it, else 0.0.

Field: example entries. Status: answers known.
compound | class_name
COC(=O)[C@@]1(Cc2ccc(OC)cc2)[C@H]2c3cc(C(=O)N4CCCC4)n(CCc4c[nH]c5ccc(O)cc45)c3C[C@H]2CN1C(=O)c1ccccc1 | 0.0
COC(=O)[C@@H]1N=C(c2ccc(OCCCO)cc2)O[C@@H]1C | 0.0
O=c1cccc(-c2ccc([N+](=O)[O-])cc2)o1 | 0.0
CCCNC(=O)[C@@H]1c2ccccc2C(=O)N(Cc2ccc(OC(F)(F)F)cc2)[C@H]1c1ccc(CO)cc1 | 1.0
O=C1CS(=O)(=O)C(c2cccc([N+](=O)[O-])c2)N1c1ccccc1 (stereo not drawn) | 1.0

Confirm if z-score reported for the compound `O=C(NCCN1CCOCC1)[C@@H]1c2ccccc2C(=O)N(C2Cc3ccccc3C2)[C@H]1c1ccc(CO)cc1` is 1 or above. 1.0

Confirm if z-score reported for the compound `CCCCC=C[C@@H](NC(=O)OCc1ccccc1Cl)c1ccccc1` is 1 or above. 0.0

----------
Entries and their composite z-score values follow.
target: Concanavalin-A (Canavalia ensiformis) (UniProt P02866); test: compounds binding concanavalin A lectin – biochemical, small-molecule microarray, Alexa647 label, 635 nm, artefact control for SMM control protein annotation, primary screen (AID 1127); conditions: ConA-A647 binding fluorescence, higher = more signal;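 note: z combines 667 nm emission intensity with signal-to-noise across three replicate slides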
Sequence (P02866 whole entry, looked up): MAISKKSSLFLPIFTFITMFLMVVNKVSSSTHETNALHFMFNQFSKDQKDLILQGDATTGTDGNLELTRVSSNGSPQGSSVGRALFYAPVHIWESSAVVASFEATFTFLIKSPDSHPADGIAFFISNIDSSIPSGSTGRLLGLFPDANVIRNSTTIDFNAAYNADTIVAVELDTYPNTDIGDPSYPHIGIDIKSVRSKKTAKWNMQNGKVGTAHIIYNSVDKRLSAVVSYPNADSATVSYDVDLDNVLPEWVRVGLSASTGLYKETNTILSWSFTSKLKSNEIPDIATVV

Please review the entries below; each comes with its answer.
compound | composite z-score
CCC1=C2CN(Cc3ccccc3)[C@@H](C(=O)Cc3ccccc3)C2C=CCC1 (some centres not stated) | 0.351
COCC(=C=CC[C@H](O)c1ccccc1OCCO)C[C@H](O)c1ccccn1 | 0.215
O=C1O[C@@H](c2ccccc2)[C@@H](c2ccccc2)N2[C@@H](c3ccc(O)cc3)[C@]3(C(=O)Nc4ccc(C#CCCO)cc43)[C@@H](C(=O)N3CCN(c4ncccn4)CC3)[C@H]12 | 1.12
C=CCNC(=O)[C@H]1[C@@H]2C(=O)O[C@@H](c3ccccc3)[C@@H](c3ccccc3)N2[C@@H](c2ccccc2OCCO)[C@]12C(=O)N(C(=O)OCCOC)c1ccc(C#CC3(O)CCCCCC3)cc12 | 0.815
C=C(COC)/C(=C/C[C@H](OC(=O)c1ccncc1)c1ccc(CO)o1)c1cnc2ccccc2c1 | 1.08
CC(C)c1ccc(NN2C(C(O)c3ccc(C#N)cc3)C=CC3C(=O)N(c4ccccc4)C(=O)C32)cc1 (configuration not stated) | 0.926

Moving on to the next compound.
Value lookup for composite z-score; key = CC(C)(C)OC(=O)CC[C@@]1(C(=O)NCC(O)CO)N=C(c2ccc(OCCCO)cc2)O[C@@H]1c1ccccc1CN=[N+]=[N-] (some centres not stated) 0.922

----------
test: basal CRE-LacZ reporter activity in PC12 – cell-based, unstimulated, primary screen (AID 1145); conditions: no forskolin, luminescence, 4.5 h, higher = more signal, called active from +8 up or from −8 down
Parameter threshold = 0.1. Response is 1 when z-score meets or exceeds it, else -1.

Field: example entries. Status: answers known.
compound | class_name
NCCCCCNC(=O)[C@H]1C[C@H]2C(=O)N3CCC[C@H]3C(=O)N2[C@H]1c1cccc(OCCO)c1 | 1
CC(C)C(CO)N1C(=O)[C@@H]2C3C(=O)OCCC/C=C\[C@H]3OC23C=CCN(c2ccc4ccccc4c2)C(=O)[C@@H]13 (some centres not stated) | -1
CN(C)C(=O)[C@@]1(Cc2ccccc2CN=[N+]=[N-])N=C(c2ccc(OCCCO)cc2)O[C@H]1c1ccccc1N=[N+]=[N-] | 1

Confirm if z-score reported for the compound `COc1ccc(C(=O)Nc2ccc(CN3C(=O)[C@]4(O[C@H](CC(=O)N5Cc6ccccc6C[C@H]5CO)[C@@H]([Si](C)(C)c5ccc(OC)cc5)[C@@H]4C)c4ccccc43)cc2)cc1` is 0.1 or above. -1
